Reference source: paper PMC12125420

Experiment: Pharmacokinetics of absorbed triterpenoid prototypes in rat serum after oral YLQS extract
Conditions: male, Sprague-Dawley, 36.99 g/kg
PARAMETER: Tmax (h)

Solved entries:
[[record]]
molecule = "C=C(C)[C@@H]1CC=C2C(=CC[C@]3(C)[C@@H]([C@@H](CCC(=C)C(C)(C)O)C(=O)O)[C@H](O)C[C@@]23C)[C@@]1(C)CCC(=O)OC"
value = 4

[[record]]
molecule = "C=C(C)C1CC=C2C(=CCC3(C)C(C(CCC(=C)C(C)(C)O)C(=O)O)C(O)CC23C)C1(C)CCC(=O)O (stereo not drawn)"
value = 6.4

[[record]]
molecule = "C=C(C)[C@@H]1CCC2=C(CC[C@]3(C)[C@@H]([C@@H](CCC=C(C)C)C(=O)O)[C@H](O)C[C@@]23C)[C@@]1(C)CCC(=O)O"
value = 5.5

[[record]]
molecule = "C=C(C)[C@@H]1CC=C2C(=CC[C@]3(C)[C@@H]([C@@H](CCC=C(C)C)C(=O)O)[C@H](O)C[C@@]23C)[C@@]1(C)CCC(=O)O"
value = 5.5


[A] C=C(C)C1CC=C2C(=CCC3(C)C(C(CCC=C(C)C)C(=O)O)CCC23C)C1(C)CCC(=O)O (stereo not drawn)
[B] C=C(C)C1CC=C2C(=CCC3(C)C(C(CCC=C(C)CO)C(=O)O)C(O)CC23C)C1(C)CCC(=O)O (stereo not drawn)
Lab log: flag the item ( A or B ) with the smaller Tmax figure. Identify your pick by its label.
A
(A: 5.6 h, B: 8.5 h)

* * *

Assay: in vivo
Details: male, Sprague-Dawley, rat, po, 36.99 g/kg
# half-life listing for each entry below
Record the value in h, omitting the unit from your answer.

[[record]]
compound = "CC(=CCCC(C(=O)O)C1C(O)CC2(C)C3=CCC4C(C)(CCC(O)C4(C)C)C3=CCC12C)CO (stereo not shown) [Dihydroxydehydrotrametenoic acid]"
value = 4.98

[[record]]
compound = "CC(C)=CC1CC(C2CCC3(C)C4=CCC5C(C)(CCC(O)C5(C)C)C4=CCC23C)C(=O)O1 (stereo not shown)"
value = 2.15

[[record]]
compound = "CC(C)=CCCC(C(=O)O)C1C(O)CC2(C)C3=CCC4C(C)(CCC(O)C4(C)C)C3=CCC12C (stereo not drawn) [16alpha-Hydroxydehydrotrametenolic acid]"
value = 1.78


Give half-life for the following compound: CC(C)C(=O)CCC(C(=O)O)C1C(O)CC2(C)C3=C(CCC12C)C1(C)CCC(O)C(C)(C)C1CC3 (stereo not shown)
3.84

* * *

Experiment: in vivo
Details: male, Sprague-Dawley, rat, po, 36.99 g/kg
PARAMETER: Tmax (h)
Respond with the bare value in h.

Worked examples follow.
[[record]]
compound = "CC(C)C(=O)CCC(C(=O)O)C1C(O)CC2(C)C3=C(CCC12C)C1(C)CCC(O)C(C)(C)C1CC3 (stereo not shown)"
value = 1.35

[[record]]
compound = "CC(C)=CCCC(C(=O)O)C1C(O)CC2(C)C3=CCC4C(C)(CCC(O)C4(C)C)C3=CCC12C (stereo not drawn) [16alpha-Hydroxydehydrotrametenolic acid]"
value = 4.4

[[record]]
compound = "CC(C)=CC1CC(C2CCC3(C)C4=CCC5C(C)(CCC(O)C5(C)C)C4=CCC23C)C(=O)O1 (stereo not shown)"
value = 6.5


Now look at this entry.
Answer with the recorded Tmax of CC(=CCCC(C(=O)O)C1C(O)CC2(C)C3=CCC4C(C)(CCC(O)C4(C)C)C3=CCC12C)CO (stereo not shown) [Dihydroxydehydrotrametenoic acid] only.
4.4

* * *

Assay: in vivo
Conditions: male, Sprague-Dawley, rat, po, 36.99 g/kg
PARAMETER: Cmax (ng/mL)
Number in ng/mL, nothing else.

[[record]]
compound = "CC(C)C(=O)CCC(C(=O)O)C1C(O)CC2(C)C3=C(CCC12C)C1(C)CCC(O)C(C)(C)C1CC3 (stereo not shown) [Daedaleanic acid B]"
parameter = "Cmax"
unit_symbol = "ng/mL"
value = 20.6


Tell us which Cmax value is on record for CC(C)=CC1CC(C2CCC3(C)C4=CCC5C(C)(CCC(O)C5(C)C)C4=CCC23C)C(=O)O1 (stereo not shown) [Porilactone A]
846

Return Cmax (reported value) for this compound: CC(C)=CCCC(C(=O)O)C1C(O)CC2(C)C3=CCC4C(C)(CCC(O)C4(C)C)C3=CCC12C (stereo not drawn) [16alpha-Hydroxydehydrotrametenolic acid]
16800

Respond only with Cmax recorded for CC(=CCCC(C(=O)O)C1C(O)CC2(C)C3=CCC4C(C)(CCC(O)C4(C)C)C3=CCC12C)CO (stereo not shown) [Dihydroxydehydrotrametenoic acid]
308

* * *

Assay: in vivo
Conditions: male, Sprague-Dawley, rat, po, 36.99 g/kg
Listed here are compounds together with their documented AUC(0-inf).
Give the value in ng·h/mL but do not write ng·h/mL after it.

[[record]]
compound = "CC(C)C(=O)CCC(C(=O)O)C1C(O)CC2(C)C3=C(CCC12C)C1(C)CCC(O)C(C)(C)C1CC3 (stereo not shown)"
value = 170


Find the measured AUC(0-inf) of CC(C)=CCCC(C(=O)O)C1C(O)CC2(C)C3=CCC4C(C)(CCC(O)C4(C)C)C3=CCC12C (stereo not drawn) [16alpha-Hydroxydehydrotrametenolic acid] and report it.
136000

For the compound CC(C)=CC1CC(C2CCC3(C)C4=CCC5C(C)(CCC(O)C5(C)C)C4=CCC23C)C(=O)O1 (stereo not shown) , give its measured AUC(0-inf) value.
9200

Report AUC(0-inf), nothing else, for this compound: CC(=CCCC(C(=O)O)C1C(O)CC2(C)C3=CCC4C(C)(CCC(O)C4(C)C)C3=CCC12C)CO (stereo not shown) [Dihydroxydehydrotrametenoic acid]
3270

* * *

Item-by-item account of AUC(0-t)
Assay: in vivo
Conditions: male, Sprague-Dawley, rat, po, 36.99 g/kg
Give your result in ng·h/mL as a bare value.

[[record]]
compound = "CC(C)=CC1CC(C2CCC3(C)C4=CCC5C(C)(CCC(O)C5(C)C)C4=CCC23C)C(=O)O1 (stereo not shown)"
parameter = "AUC(0-t)"
value = 9460


Supply recorded AUC(0-t) for CC(=CCCC(C(=O)O)C1C(O)CC2(C)C3=CCC4C(C)(CCC(O)C4(C)C)C3=CCC12C)CO (stereo not shown) [Dihydroxydehydrotrametenoic acid] here.
3030

Specify measured AUC(0-t) for CC(C)=CCCC(C(=O)O)C1C(O)CC2(C)C3=CCC4C(C)(CCC(O)C4(C)C)C3=CCC12C (stereo not drawn) [16alpha-Hydroxydehydrotrametenolic acid] .
136000

Give reported AUC(0-t) value for CC(C)C(=O)CCC(C(=O)O)C1C(O)CC2(C)C3=C(CCC12C)C1(C)CCC(O)C(C)(C)C1CC3 (stereo not shown)
129

* * *

Assay: Pharmacokinetics of absorbed triterpenoid prototypes in rat serum after oral YLQS extract
Conditions: male, Sprague-Dawley, 36.99 g/kg
PARAMETER: half-life (h)

[[record]]
molecule = "C=C(C)C1CC=C2C(=CCC3(C)C(C(CCC=C(C)C)C(=O)O)CCC23C)C1(C)CCC(=O)O (stereo not drawn)"
unit_symbol = "h"
value = 4.95

[[record]]
molecule = "C=C(C)C1CC=C2C(=CCC3(C)C(C(CCC(=C)C(C)(C)O)C(=O)O)C(O)CC23C)C1(C)CCC(=O)O (stereo not drawn)"
unit_symbol = "h"
value = 5.51

[[record]]
molecule = "C=C(C)[C@@H]1CCC2=C(CC[C@]3(C)[C@@H]([C@@H](CCC=C(C)C)C(=O)O)[C@H](O)C[C@@]23C)[C@@]1(C)CCC(=O)O"
unit_symbol = "h"
value = 3.5


[A] C=C(C)[C@@H]1CC=C2C(=CC[C@]3(C)[C@@H]([C@@H](CCC=C(C)C)C(=O)O)[C@H](O)C[C@@]23C)[C@@]1(C)CCC(=O)O
[B] C=C(C)C1CC=C2C(=CCC3(C)C(C(CCC=C(C)CO)C(=O)O)C(O)CC23C)C1(C)CCC(=O)O (stereo not drawn)
Problem: Given the entries A and B , determine which has the lower reported half-life. Your answer should be the label of the entry you select.
A
(A: 4.11 h, B: 6.64 h)

* * *

Assay: Pharmacokinetics of absorbed triterpenoid prototypes in rat serum after oral YLQS extract
Conditions: male, Sprague-Dawley, 36.99 g/kg
PARAMETER: AUC(0-inf) (ng·h/mL)

[[record]]
compound = "C=C(C)[C@@H]1CC=C2C(=CC[C@]3(C)[C@@H]([C@@H](CCC(=C)C(C)(C)O)C(=O)O)[C@H](O)C[C@@]23C)[C@@]1(C)CCC(=O)OC"
unit_symbol = "ng·h/mL"
value = 105

[[record]]
compound = "C=C(C)C1CC=C2C(=CCC3(C)C(C(CCC=C(C)C)C(=O)O)CCC23C)C1(C)CCC(=O)O (stereo not drawn)"
unit_symbol = "ng·h/mL"
value = 2540


[1] C=C(C)[C@@H]1CC=C2C(=CC[C@]3(C)[C@@H]([C@@H](CCC=C(C)C)C(=O)O)[C@H](O)C[C@@]23C)[C@@]1(C)CCC(=O)O
[2] C=C(C)C1CC=C2C(=CCC3(C)C(C(CCC=C(C)CO)C(=O)O)C(O)CC23C)C1(C)CCC(=O)O (stereo not drawn)
Which one would you say has the larger AUC(0-inf) value: 1 , or 2 ? Write down the label attached to your selection.
1
(1: 2290 ng·h/mL, 2: 223 ng·h/mL)

[P] C=C(C)C1CC=C2C(=CCC3(C)C(C(CCC(=C)C(C)(C)O)C(=O)O)C(O)CC23C)C1(C)CCC(=O)O (stereo not drawn)
[Q] C=C(C)[C@@H]1CCC2=C(CC[C@]3(C)[C@@H]([C@@H](CCC=C(C)C)C(=O)O)[C@H](O)C[C@@]23C)[C@@]1(C)CCC(=O)O
I would appreciate it if you could say which entry, P or Q , has the lower AUC(0-inf) value. Selection: enter the item's label.
P
